Origin of the recorded values: patent US20150086555A1

- tested-on: recombinant soluble homotrimeric HA of A/Egypt/3300-NAMRU3/08 (H5N1) (Influenza A virus A/Egypt/3300-NAMRU3/2008(H5N1))
- method-notes: trimeric HA microarray, transfection supernatant set 2
- condition: remark: other sources report otherwise
Form field: Trimeric HA Binding: RLU (one value per entry).
Just the number plus its unit, please.

TCN-523 (5248_A17) (antibody, V domains shown) VH: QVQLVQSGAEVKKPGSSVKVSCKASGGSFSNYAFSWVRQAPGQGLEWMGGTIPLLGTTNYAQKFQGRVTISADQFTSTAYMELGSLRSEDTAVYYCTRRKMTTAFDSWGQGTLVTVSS VL: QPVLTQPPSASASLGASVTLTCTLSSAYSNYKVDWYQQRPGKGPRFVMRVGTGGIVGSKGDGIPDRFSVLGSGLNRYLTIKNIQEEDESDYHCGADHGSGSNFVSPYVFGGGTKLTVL; 30700 RLU
TCN-563 (5237_B21) (antibody, V domains shown) VH: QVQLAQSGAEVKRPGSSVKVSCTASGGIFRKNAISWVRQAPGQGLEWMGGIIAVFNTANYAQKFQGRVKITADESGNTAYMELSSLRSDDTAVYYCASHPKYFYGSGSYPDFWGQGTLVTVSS VL: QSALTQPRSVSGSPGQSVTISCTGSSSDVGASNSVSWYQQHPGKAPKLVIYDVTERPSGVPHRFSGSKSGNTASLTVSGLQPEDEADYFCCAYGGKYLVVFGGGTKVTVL; 23900 RLU

Reported Trimeric HA Binding: RLU ( TCN-527 (5086_C06) (antibody, V domains shown) VH: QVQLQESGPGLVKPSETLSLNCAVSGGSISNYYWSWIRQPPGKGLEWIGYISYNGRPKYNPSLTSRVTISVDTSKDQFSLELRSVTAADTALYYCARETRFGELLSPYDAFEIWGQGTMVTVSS VL: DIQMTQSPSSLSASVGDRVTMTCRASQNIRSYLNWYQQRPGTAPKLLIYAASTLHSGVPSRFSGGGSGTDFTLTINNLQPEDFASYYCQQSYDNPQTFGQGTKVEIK ) = 23600 RLU
